// data source = patent US10669269B2

biological target: c-KIT (Homo sapiens); construct: M-07e cells (human acute megakaryoblastic leukemia cell line) were serum-starved for 4 hours; endogenous in cells; test: c-KIT Cell-Based Assay (Example D); conditions: averaged IC50; phospho-c-KIT in M-07e cells stimulated with 150 ng/ml recombinant human SCF; read-out: cKIT Cell ELISA IC50
Sequence (P10721 26-976): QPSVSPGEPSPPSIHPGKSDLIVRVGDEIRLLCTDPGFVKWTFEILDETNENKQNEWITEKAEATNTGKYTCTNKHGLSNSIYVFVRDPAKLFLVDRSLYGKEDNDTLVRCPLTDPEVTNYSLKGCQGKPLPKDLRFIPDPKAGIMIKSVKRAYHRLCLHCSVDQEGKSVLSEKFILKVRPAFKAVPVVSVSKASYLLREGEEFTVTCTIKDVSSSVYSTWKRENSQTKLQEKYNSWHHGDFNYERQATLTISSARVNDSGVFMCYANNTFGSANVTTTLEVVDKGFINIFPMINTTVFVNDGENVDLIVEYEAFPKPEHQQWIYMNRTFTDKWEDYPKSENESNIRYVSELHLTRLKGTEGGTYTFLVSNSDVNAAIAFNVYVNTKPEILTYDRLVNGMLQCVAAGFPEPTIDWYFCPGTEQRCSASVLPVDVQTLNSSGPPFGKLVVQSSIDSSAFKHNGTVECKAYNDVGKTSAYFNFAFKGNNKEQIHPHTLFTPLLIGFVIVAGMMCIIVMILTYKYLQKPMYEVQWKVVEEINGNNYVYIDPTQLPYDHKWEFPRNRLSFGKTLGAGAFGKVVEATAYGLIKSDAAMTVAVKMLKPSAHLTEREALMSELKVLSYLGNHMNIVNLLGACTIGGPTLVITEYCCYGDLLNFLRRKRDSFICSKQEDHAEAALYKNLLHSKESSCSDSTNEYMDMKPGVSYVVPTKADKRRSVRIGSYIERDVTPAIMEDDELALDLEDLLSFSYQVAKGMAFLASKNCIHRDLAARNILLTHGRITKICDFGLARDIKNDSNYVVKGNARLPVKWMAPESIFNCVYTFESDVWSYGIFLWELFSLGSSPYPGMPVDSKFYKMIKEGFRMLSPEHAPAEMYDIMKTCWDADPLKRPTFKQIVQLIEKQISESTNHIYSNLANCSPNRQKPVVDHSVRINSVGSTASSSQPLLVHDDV
Where a name gives a salt, the structure may show the parent alone.
Reported property: pIC50
# reply with the number alone; pIC50 is -log10 of concentration in mol/L

Known pIC50 results, listed for orientation:
[
  {
    "Molecule": "Cc1cccc(Cn2nc(C)c3c(NC(=O)c4cnc5cc(OCC(O)CO)ccn45)cccc32)n1 (stereo not drawn)",
    "Result value": 5.16
  },
  {
    "Molecule": "C[C@H]1CN(CCOc2ccn3c(C(=O)Nc4cccc5c4c(Cl)nn5Cc4cccc(C5CC5)n4)cnc3c2)CCN1C",
    "Result value": 7.18
  },
  {
    "Molecule": "COCCN1CCN(CCOc2ccn3c(C(=O)Nc4cccc5c4c(C)nn5Cc4cccc(C5CC5)n4)cnc3c2)CC1",
    "Result value": 7.12
  },
  {
    "Molecule": "Cc1cccc(Cn2nc(C)c3c(NC(=O)c4cnc5ccc(C#N)cn45)cccc32)n1",
    "Result value": 5.61
  },
  {
    "Molecule": "CN1CCN(CCOc2ccn3c(C(=O)Nc4cccc5c4cnn5Cc4cccc(C(F)(F)F)c4)cnc3c2)CC1 [Example 98, dihydrochloride]",
    "Result value": 8.31
  }
]

Consider the additional molecule presented here.
Can you share its pIC50? I mean this molecule: `Cc1nn(Cc2csc(C(C)C)n2)c2cccc(NC(=O)c3cnc4cc(OCCN5CC6(CN(C)C6)C5)ccn34)c12`
7.12
